system: cancer cells; assay: MTT cytotoxic assay of esterification products (Cytotoxicity activity); assay type: cell-based, human; settings: E4A esterified with benzoyl chloride (Ben = benzoyl), compounds isolated with HPLC
Measured quantity: Cytotoxicity activity

1. CC1(C)CC2C3=CCC4C5(C)CCC(O)C(C)(COC(=O)c6ccccc6)C5CCC4(C)C3(C)CC(O)C2(CO)C(O)C1OC(=O)c1ccccc1 (stereo not drawn) | moderate
2. CC1(C)CC2C3=CCC4C5(C)CCC(O)C(C)(CO)C5CCC4(C)C3(C)CC(OC(=O)c3ccccc3)C2(COC(=O)c2ccccc2)C(O)C1O (stereo not drawn) | moderate
3. CC1(C)CC2C3=CCC4C5(C)CCC(O)C(C)(COC(=O)c6ccccc6)C5CCC4(C)C3(C)CC(O)C2(CO)C(OC(=O)c2ccccc2)C1O (stereo not drawn) | moderate
